Catalogue of pEC50 values
- Target or system: UniProtKB P35408
- Assay details: Agonist activity against recombinant prostanoid EP4 receptor stably transfected in CHO cells
Kindly note that pEC50 refers to -log10 of the concentration in mol/L and answer with the value alone.

Solved entries:
> print(dat)
                                   compound  test.readout  recorded.measurement
1  Cc1cc(O)ccc1-c1cccc(C(O)/C=C/[C@H]2CCC(=O)N2CCCCCCC(=O)O)c1 (stereo not given in full)         pEC50                  7.89
2  O=C(O)CCCCCCN1C(=O)CC[C@@H]1CC[C@@H](O)Cc1cccc(C(F)(F)F)c1         pEC50                  6.34
3  O=C(O)CCCCCCN1C(=O)CC[C@@H]1/C=C/[C@@H](O)CC1CCCCC1         pEC50                  6.92

Measured pEC50 for this entry O=C(O)CCCCCCN1C(=O)CC[C@@H]1/C=C/[C@@H](O)CC1CCC1 on UniProtKB P35408: 6.70

Measured pEC50 for this entry CCCCC[C@@H](O)/C=C/[C@H]1CCC(=O)N1CCCCCCC(=O)O on UniProtKB P35408: 5.21

Measured pEC50 for this entry O=C(O)CCCCCCN1C(=O)CC[C@@H]1/C=C/C(O)c1ccccc1-c1ccccc1 (stereo not given in full) on UniProtKB P35408: 4.38

Measured pEC50 for this entry CCCCC[C@@H](O)/C=C/[C@@H]1CCC(=O)N1CCCCCCC(=O)O on UniProtKB P35408: 3.70

Measured pEC50 for this entry O=C(O)CCCCCCN1C(=O)CC[C@@H]1/C=C/C(O)c1ccc(C(F)(F)F)o1 (stereo not given in full) on UniProtKB P35408: 7.40

====

- Target or system: Prostaglandin E2 receptor EP4 subtype (Homo sapiens)
- Sequence (P35408 whole entry): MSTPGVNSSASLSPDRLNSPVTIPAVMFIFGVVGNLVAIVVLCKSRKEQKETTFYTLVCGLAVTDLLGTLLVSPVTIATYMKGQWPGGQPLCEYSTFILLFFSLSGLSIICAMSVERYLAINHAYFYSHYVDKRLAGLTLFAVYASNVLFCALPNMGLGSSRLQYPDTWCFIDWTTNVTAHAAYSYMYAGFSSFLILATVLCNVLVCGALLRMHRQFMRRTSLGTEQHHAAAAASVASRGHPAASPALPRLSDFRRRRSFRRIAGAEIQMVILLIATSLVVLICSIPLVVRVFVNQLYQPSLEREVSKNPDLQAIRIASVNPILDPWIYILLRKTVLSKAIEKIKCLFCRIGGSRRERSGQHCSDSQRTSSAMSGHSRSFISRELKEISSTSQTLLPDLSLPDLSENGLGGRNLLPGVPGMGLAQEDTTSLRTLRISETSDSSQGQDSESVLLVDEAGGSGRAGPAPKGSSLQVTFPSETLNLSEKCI
- Assay details: Agonist activity against recombinant prostanoid EP4 receptor stably transfected in CHO cells
Catalogue of pEC50 values
Kindly note that pEC50 refers to -log10 of the concentration in mol/L and answer with the value alone.

> print(dat)
                                   molecule                          target.or.system  recorded.measurement
1  CCCCC[C@H](O)/C=C/[C@H]1CCC(=O)N1CCCCCCC(=O)O  Prostaglandin E2 receptor EP4 subtype (Homo sapiens)                  7.25
2  O=C(O)CCCCCCN1C(=O)CC[C@@H]1/C=C/C(O)c1cccc(-c2ccccc2Cl)c1 (some centres undefined)  Prostaglandin E2 receptor EP4 subtype (Homo sapiens)                  7.40
3  Cc1cc(Cl)ccc1-c1cccc(C(O)/C=C/[C@H]2CCC(=O)N2CCCCCCC(=O)O)c1 (some centres undefined)  Prostaglandin E2 receptor EP4 subtype (Homo sapiens)                  9.10

Record Cc1cc(O)ccc1-c1cccc([C@H](O)CC[C@H]2CCC(=O)N2CCCCCCC(=O)O)c1 . Reported pEC50: 7.82

Record O=C(O)CCCCCCN1C(=O)CC[C@@H]1/C=C/C(O)c1cccc(-c2ccccc2)c1 (some centres undefined) . Reported pEC50: 6.44

====

# Prostaglandin E2 receptor EP3 subtype (Homo sapiens, UniProt P43115): pKi values follow
# Sequence (P43115 whole entry): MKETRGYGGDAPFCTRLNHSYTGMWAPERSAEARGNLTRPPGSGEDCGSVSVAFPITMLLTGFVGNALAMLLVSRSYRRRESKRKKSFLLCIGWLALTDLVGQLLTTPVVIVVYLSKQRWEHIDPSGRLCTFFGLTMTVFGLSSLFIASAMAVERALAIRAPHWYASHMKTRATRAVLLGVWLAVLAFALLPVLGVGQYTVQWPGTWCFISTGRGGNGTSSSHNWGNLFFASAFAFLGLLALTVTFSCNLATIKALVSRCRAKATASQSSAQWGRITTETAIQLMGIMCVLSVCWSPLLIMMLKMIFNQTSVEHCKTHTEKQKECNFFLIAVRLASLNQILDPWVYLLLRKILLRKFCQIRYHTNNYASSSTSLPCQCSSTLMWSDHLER
Kindly note that pKi refers to -log10 of the concentration in mol/L and answer with the value alone.

> print(dat)
                                   molecule  recorded.measurement
1  Cc1cc(Cl)ccc1-c1cccc(C(O)/C=C/[C@H]2CCC(=O)N2CCCCCCC(=O)O)c1 (stereo not given in full)                  4.42
2  O=C(O)CCCCCCN1C(=O)CC[C@@H]1CC[C@@H](O)Cc1cccc(C(F)(F)F)c1                  4.42

Alright, here's another molecule for you.
Record O=C(O)CCCCCCN1C(=O)CC[C@@H]1/C=C/C(O)c1cccc(C(F)(F)F)c1 (stereo not given in full) . Reported pKi: 3.88

Data provenance: ChEMBL document CHEMBL1137967
